# test_protocol: yeast display, Sf9 membrane polyspecificity reagent, FACS + sequencing; frameworks hold sequencing errors
recorded_endpoint: polyreactivity (PSR sort gate)

// worked examples, polyreactivity (PSR sort gate) included
| biosequence | reported_result |
| --- | --- |
| QVQLVESGGGLVQAGGSLRLSCAASGRTFGGYAMGWYRQAPGKERELVAAISYSGGSTYYADSVKGRFTISRDNAKNTVYLQMNSLKPEDTAVYYCAADGYDAYYWGQGTQVTVSS | low polyreactivity |
| QVQLVESGGGLVQAGGSLRLSCAASGRTFPRYAMGWYRQAPGKERELVAAISVRAGITYYADSVKGRFTISRDNAKNTVYLQMNSLKPEDTAVYYCAKSVRYPASDYWGQGTQVTVSS | low polyreactivity |
| QVQLVESGGGLVQAGGSLRLSCAASGRTFYVYNMGCYRQAPGKERELVAGISYSGGSTYYADSVKGRFTISRDNAKNTVYLQMNSLKPEDTAVYYSNAELYFPYFDGKTRLGGYWGLGTQVTVSS | low polyreactivity |
| QVQLVESGGGLVQAGGSLRLSCAASGSIFGQYAMGWYRQAPGKERELVAAITWDGTSTYYADSVKGRFTISRDNAKNTVYLQMNSLKPEDTAVYYCAADFYPYSWEEVDYWGQGTQVTVSS | low polyreactivity |
| QVQLVESGGGLVQAGGSLRLSCAASGITFVANAMGWYRQAPGKERELVAGITQTGGSTYYADSVKGRFTISRDNAKNTVYLQMNSLKPEDTAVYYCAATYRRLRYGKLLYYWGQGTQVTVSS | high polyreactivity |

Each of the following entries comes with a recorded value; kindly state polyreactivity (PSR sort gate) for each.
1. QVQLVDSGGGLVQAGGSLRLSCAASGGIFRQNVMGWYRQAPGKERELVAAISRRGGITYYAEAVKGRFTISRDNAKNTVYLQMNSLKPEDTAVYYCNKKPTWDYSYWGQGTQVTVSS
2. QVQLVESGGGLVQGGGSLRLSCAASGNILRIYAMGWYRQAPGKEREFVAAIRQSDGRTYYADSVKGRFTISRDNAKNTVYLQMNSLKPEDTSVYYCAADVYQEYDYWGQGTQVTVSS
3. QVQLVESGGGLVQAGGSLRLSCAASGRTFYIYAMGWYRQAPGTERELVAAITYGGGRTFYADSVKGRFTISRDKAKNTVYLQMNSLKPEDTAVYYCAADGRTLGRRYYYWGLGTQVTVSS
4. QVQLVESGGGLVQAGGSLRLSCAASGFIFHRYAMGWYRQAPGKERELVASITRSGGSTYYADSVKGRFTISRDNAKNTVYLQMISLKPEDTAVYYCAAQLPSYYKYPRHDYWGQGTQVTVSS
5. QVQLVESGGGLVQAGGSLRLSCAASGSTLRPYGMGWYRQAPGKERELVATIRSSSGRTYYADSVKGRFTISRDNAKTTVYLQMTSLKPEDTAVYYCARRYITNIKYDYWGQGTQVTVSS
6. QVQLVESGGGLVQAGVSLRLSCAASGVNAMGWYRQAPGKEREFVAAITSIGGSTYYADSVKGRFTISRDNAKNTVYLQMNSLKPEDTAVYYCNTDRGPVKVSPLYESWGQGTQVTVSS

OUTPUT:
high polyreactivity
high polyreactivity
high polyreactivity
high polyreactivity
high polyreactivity
low polyreactivity
